MEASUREMENT_LABEL: Kd (nM)
Write it as a number; the unit nM goes unstated.

Ask: So what Kd did Cc1ccc(C(=O)Nc2ccc(CN3CCN(C)CC3)c(C(F)(F)F)c2)cc1C#Cc1cnc(N)c2ncccc12 [HSN356] get with LYN (Homo sapiens (Human), UniProt P07948)?
Result: 5.4

Ask: So what Kd did Cc1ccc(C(=O)Nc2ccc(CN3CCN(C)CC3)c(C(F)(F)F)c2)cc1C#Cc1c(N)ncc2ccc(Cl)cc12 [HSN286] get with LYN (Homo sapiens (Human), UniProt P07948)?
Result: 11

----------
Can you tell me % inhibition of FLT3 activity for the items I'm about to list?
MEASURED_TARGET: FLT3 (Homo sapiens (Human), UniProt P36888)
Sequence (P36888 27-993): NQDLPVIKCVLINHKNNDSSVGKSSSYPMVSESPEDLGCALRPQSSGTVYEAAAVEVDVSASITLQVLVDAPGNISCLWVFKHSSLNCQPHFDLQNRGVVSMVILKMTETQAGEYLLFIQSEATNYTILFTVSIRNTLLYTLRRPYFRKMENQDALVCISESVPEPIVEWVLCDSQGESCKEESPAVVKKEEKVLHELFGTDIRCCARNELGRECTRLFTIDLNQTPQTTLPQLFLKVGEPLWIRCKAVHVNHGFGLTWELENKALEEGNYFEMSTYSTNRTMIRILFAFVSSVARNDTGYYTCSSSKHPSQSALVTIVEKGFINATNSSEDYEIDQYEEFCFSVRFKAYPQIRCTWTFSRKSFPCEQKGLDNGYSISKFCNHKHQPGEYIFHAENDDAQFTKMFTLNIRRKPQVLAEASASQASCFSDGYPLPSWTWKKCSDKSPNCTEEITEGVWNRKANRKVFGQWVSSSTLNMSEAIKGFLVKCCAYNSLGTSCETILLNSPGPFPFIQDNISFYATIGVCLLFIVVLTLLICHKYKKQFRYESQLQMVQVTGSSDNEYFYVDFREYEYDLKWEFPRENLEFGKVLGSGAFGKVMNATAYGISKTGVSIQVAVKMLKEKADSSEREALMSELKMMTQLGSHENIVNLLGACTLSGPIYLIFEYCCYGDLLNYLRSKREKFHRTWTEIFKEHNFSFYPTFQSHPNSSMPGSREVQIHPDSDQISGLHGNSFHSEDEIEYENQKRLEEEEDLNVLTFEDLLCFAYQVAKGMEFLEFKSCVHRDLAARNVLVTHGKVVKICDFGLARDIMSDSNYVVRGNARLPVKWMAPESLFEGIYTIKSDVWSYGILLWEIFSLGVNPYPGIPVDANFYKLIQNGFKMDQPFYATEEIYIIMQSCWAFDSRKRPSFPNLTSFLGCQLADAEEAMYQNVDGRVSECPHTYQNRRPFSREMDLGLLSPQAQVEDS
EXPERIMENT_NOTES: Reaction Biology HotSpot kinase assay
Type: biochemical
COND: 500 nM compound

Ask: So what % inhibition of FLT3 activity did CCN(CC)CCNC(=O)c1ccc(C)c(C#Cc2c(N)ncc3ccc(Cl)cc23)c1 [HSN247] get with FLT3 (Homo sapiens (Human), UniProt P36888)?
Result: 75%

Ask: So what % inhibition of FLT3 activity did CN(C)CC(O)CNC(=O)c1ccc(C#Cc2c(N)ncc3ccc(Cl)cc23)cc1 (stereo not shown) [HSM1702] get with FLT3 (Homo sapiens (Human), UniProt P36888)?
Result: 66%

Ask: So what % inhibition of FLT3 activity did Cc1ccc(C(=O)NCc2ccc(OCCN(C)C)cc2)cc1C#Cc1c(N)ncc2ccc(Cl)cc12 [HSN315] get with FLT3 (Homo sapiens (Human), UniProt P36888)?
Result: 32%

Ask: So what % inhibition of FLT3 activity did COc1cc2nc(N)nc(C#Cc3cc(C(=O)Nc4ccc(CN5CCN(C)CC5)c(C(F)(F)F)c4)ccc3C)c2cc1OC [HSN325] get with FLT3 (Homo sapiens (Human), UniProt P36888)?
Result: 34%

----------
Tested on: NCI H1703 (NSCLC)
EXPERIMENT_NOTES: Activity against lung cancer cell line
Assay type: cell-based
COND: Homo sapiens, NCI-H1703
Can you tell me log10 of IC50 for the items I'm about to list?
Log10 applied to IC50; unit prior to transform: nM.

Ask: Report log10 of IC50 for `Cc1ccc(C(=O)Nc2ccc(CN3CCN(C)CC3)c(C(F)(F)F)c2)cc1C#Cc1cnc(N)c2ncccc12` please.
Result: 1.94

Ask: Report log10 of IC50 for `Cc1ncc(C(=O)Nc2ccc(CN3CCN(C)CC3)c(C(F)(F)F)c2)cc1C#Cc1cnc(N)c2ncccc12` please.
Result: 1.58

Ask: Report log10 of IC50 for `Cc1ccc2cnc(N)c(C#Cc3cc(C(=O)Nc4ccc(CN5CCN(C)CC5)c(C(F)(F)F)c4)ccc3C)c2c1` please.
Result: 1.11

Ask: Report log10 of IC50 for `Cc1ccc(C(=O)Nc2ccc(CN3CCN(C)CC3)c(C(F)(F)F)c2)cc1C#Cc1cnc(N)c2ccccc12` please.
Result: 1.99

Ask: Report log10 of IC50 for `Cc1ncc(C(=O)Nc2ccc(CN3CCN(C)CC3)c(C(F)(F)F)c2)cc1C#Cc1cnc(N)c2ccccc12` please.
Result: 2.20

Ask: Report log10 of IC50 for `Cc1ccc(C(=O)Nc2ccc(CN3CCN(C)CC3)c(C(F)(F)F)c2)cc1C#Cc1c(N)ncc2ccc(Cl)cc12` please.
Result: 1.70

Ref: patent US20250084039A1
